The measurements presented in this section are drawn from the supplement of paper PMC3545927.

- target under test: furin, P09958;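 further: purified furin at 1:10 enzyme:substrate in 50 mM HEPES pH 7.5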
- Sequence (P09958 whole entry): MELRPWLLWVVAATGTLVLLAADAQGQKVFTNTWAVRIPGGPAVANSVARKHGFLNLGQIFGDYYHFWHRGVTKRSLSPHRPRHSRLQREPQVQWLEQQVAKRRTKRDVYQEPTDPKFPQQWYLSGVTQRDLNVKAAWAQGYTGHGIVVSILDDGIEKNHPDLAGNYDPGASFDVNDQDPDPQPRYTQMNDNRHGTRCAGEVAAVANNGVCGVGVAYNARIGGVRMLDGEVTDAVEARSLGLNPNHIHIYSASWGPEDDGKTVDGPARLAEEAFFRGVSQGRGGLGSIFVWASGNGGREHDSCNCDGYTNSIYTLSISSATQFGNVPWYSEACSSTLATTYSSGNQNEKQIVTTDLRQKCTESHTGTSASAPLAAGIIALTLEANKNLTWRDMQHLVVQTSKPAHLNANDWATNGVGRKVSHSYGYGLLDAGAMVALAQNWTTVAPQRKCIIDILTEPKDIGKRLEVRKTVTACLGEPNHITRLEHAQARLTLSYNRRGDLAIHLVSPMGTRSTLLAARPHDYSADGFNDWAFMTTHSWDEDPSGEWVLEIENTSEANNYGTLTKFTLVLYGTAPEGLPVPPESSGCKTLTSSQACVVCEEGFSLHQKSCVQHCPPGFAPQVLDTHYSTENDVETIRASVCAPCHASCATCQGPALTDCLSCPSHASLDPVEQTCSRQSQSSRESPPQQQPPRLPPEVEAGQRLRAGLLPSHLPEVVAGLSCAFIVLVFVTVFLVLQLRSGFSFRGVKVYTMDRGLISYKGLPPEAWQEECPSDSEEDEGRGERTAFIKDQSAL
- protocol: furin cleavage Z-score vs untreated control; higher = more cleavage, active = 3.5 or more, inactive = 1 or less, 8 variable residues between constant flanks
- settings: 30 min
This is one part of the list. How many sequences the whole screen found active is unknown.
Short version: furin cleavage Z-score at least 1 is met, less is not met.

CAHYVPESDAAGNASASA [HC1127]    not met
CAHPSRKRRAAGNASASA [FS-132]    met
CAFSPRRHWTAGNASASA [HC307]    not met
CARHGRRRRHAGNASASA [FS-1156]    met
CATRRRTPRPAGNASASA [FS-1293]    not met
CAHPNIEEVAAGNASASA [HC840]    not met
CAFVAPGERPAGNASASA [HC911]    not met
CARPGRLDRHAGNASASA [FS-917]    not met
CAERSREMRAAGNASASA [FS-1120]    not met
CAFQNRRARHAGNASASA [FS-1589]    met

In: Is furin cleavage Z-score for CASTRRRPRHAGNASASA [FS-1170] at or above 1?
Out: met

In: Is furin cleavage Z-score for CAGALVAFKIAGNASASA [HC1091] at or above 1?
Out: not met

In: Is furin cleavage Z-score for CAAAWETARHAGNASASA [HC1568] at or above 1?
Out: not met

In: Is furin cleavage Z-score for CAAAARRRRHAGNASASA [FS-638] at or above 1?
Out: met
